// data source = BigSolDB 2.1

test_context: in isopropanol, 328.15 K

# chemical_string, solubility (mole fraction)
data = [
    ("Oc1cccc(/C=N\\NC(=S)NC2CCCCC2)c1", 0.0335),
]

* * *

test_context: in transcutol, 298.15 K

# chemical_string, solubility (mole fraction)
rows = [
    ("Oc1cccc(/C=N\\NC(=S)NC2CCCCC2)c1", 0.0938),
]

* * *

test_context: in ethyl acetate, 308.15 K
endpoint_label: solubility (mole fraction)

# chemical_string, reported_measurement
rows = [
    ("Oc1cccc(/C=N\\NC(=S)NC2CCCCC2)c1", 0.0117),
]

* * *

test_context: in PEG-400, 298.15 K

# chemical_string, solubility (mole fraction)
records = [
    ("Oc1cccc(/C=N\\NC(=S)NC2CCCCC2)c1", 0.071),
]

* * *

test_context: in ethylene glycol, 298.15 K

# chemical_string, solubility (mole fraction)
rows = [
    ("Oc1cccc(/C=N\\NC(=S)NC2CCCCC2)c1", 0.00185),
]

* * *

test_context: in ethylene glycol, 308.15 K

# chemical_string, solubility (mole fraction)
rows = [
    ("Oc1cccc(/C=N\\NC(=S)NC2CCCCC2)c1", 0.00225),
]

* * *

test_context: in ethyl acetate, 298.15 K

# chemical_string, solubility (mole fraction)
records = [
    ("Oc1cccc(/C=N\\NC(=S)NC2CCCCC2)c1", 0.0104),
]

* * *

test_context: in ethyl acetate, 338.15 K
endpoint_label: solubility (mole fraction)

# chemical_string, endpoint_label, reported_measurement
data = [
    ("Oc1cccc(/C=N\\NC(=S)NC2CCCCC2)c1", "solubility (mole fraction)", 0.0167),
]

* * *

test_context: in isopropanol, 298.15 K

# chemical_string, solubility (mole fraction)
records = [
    ("Oc1cccc(/C=N\\NC(=S)NC2CCCCC2)c1", 0.0302),
]

* * *

test_context: in ethyl acetate, 328.15 K

# chemical_string, solubility (mole fraction)
measured = [
    ("Oc1cccc(/C=N\\NC(=S)NC2CCCCC2)c1", 0.0147),
]

* * *

test_context: in PEG-400, 338.15 K
endpoint_label: solubility (mole fraction)

# chemical_string, reported_measurement
measured = [
    ("Oc1cccc(/C=N\\NC(=S)NC2CCCCC2)c1", 0.101),
]

* * *

test_context: in propylene glycol, 328.15 K
endpoint_label: solubility (mole fraction)

# chemical_string, reported_measurement
data = [
    ("Oc1cccc(/C=N\\NC(=S)NC2CCCCC2)c1", 0.036),
]

* * *

test_context: in transcutol, 318.15 K

# chemical_string, solubility (mole fraction)
rows = [
    ("Oc1cccc(/C=N\\NC(=S)NC2CCCCC2)c1", 0.102),
]

* * *

test_context: in ethanol, 308.15 K

# chemical_string, solubility (mole fraction)
records = [
    ("Oc1cccc(/C=N\\NC(=S)NC2CCCCC2)c1", 0.0141),
]

* * *

test_context: in PEG-400, 308.15 K
endpoint_label: solubility (mole fraction)

# chemical_string, reported_measurement
data = [
    ("Oc1cccc(/C=N\\NC(=S)NC2CCCCC2)c1", 0.0774),
]

* * *

test_context: in ethanol, 318.15 K

# chemical_string, solubility (mole fraction)
rows = [
    ("Oc1cccc(/C=N\\NC(=S)NC2CCCCC2)c1", 0.0149),
]

* * *

test_context: in PEG-400, 318.15 K
endpoint_label: solubility (mole fraction)

# chemical_string, endpoint_label, reported_measurement
data = [
    ("Oc1cccc(/C=N\\NC(=S)NC2CCCCC2)c1", "solubility (mole fraction)", 0.0845),
]

* * *

test_context: in ethylene glycol, 328.15 K

# chemical_string, solubility (mole fraction)
measured = [
    ("Oc1cccc(/C=N\\NC(=S)NC2CCCCC2)c1", 0.00358),
]

* * *

test_context: in transcutol, 338.15 K

# chemical_string, solubility (mole fraction)
measured = [
    ("Oc1cccc(/C=N\\NC(=S)NC2CCCCC2)c1", 0.111),
]

* * *

test_context: in propylene glycol, 338.15 K

# chemical_string, solubility (mole fraction)
rows = [
    ("Oc1cccc(/C=N\\NC(=S)NC2CCCCC2)c1", 0.0376),
]

* * *

test_context: in ethylene glycol, 338.15 K

# chemical_string, solubility (mole fraction)
rows = [
    ("Oc1cccc(/C=N\\NC(=S)NC2CCCCC2)c1", 0.00454),
]

* * *

test_context: in ethanol, 338.15 K

# chemical_string, solubility (mole fraction)
data = [
    ("Oc1cccc(/C=N\\NC(=S)NC2CCCCC2)c1", 0.0164),
]

* * *

test_context: in water, 318.15 K

# chemical_string, solubility (mole fraction)
data = [
    ("Oc1cccc(/C=N\\NC(=S)NC2CCCCC2)c1", "9.09e-07"),
]

* * *

test_context: in transcutol, 308.15 K
endpoint_label: solubility (mole fraction)

# chemical_string, reported_measurement
records = [
    ("Oc1cccc(/C=N\\NC(=S)NC2CCCCC2)c1", 0.0978),
]

* * *

test_context: in propylene glycol, 298.15 K
endpoint_label: solubility (mole fraction)

# chemical_string, reported_measurement
measured = [
    ("Oc1cccc(/C=N\\NC(=S)NC2CCCCC2)c1", 0.0319),
]

* * *

test_context: in water, 308.15 K

# chemical_string, solubility (mole fraction)
data = [
    ("Oc1cccc(/C=N\\NC(=S)NC2CCCCC2)c1", "5.85e-07"),
]

* * *

test_context: in transcutol, 328.15 K

# chemical_string, solubility (mole fraction)
data = [
    ("Oc1cccc(/C=N\\NC(=S)NC2CCCCC2)c1", 0.106),
]

* * *

test_context: in isopropanol, 318.15 K

# chemical_string, solubility (mole fraction)
data = [
    ("Oc1cccc(/C=N\\NC(=S)NC2CCCCC2)c1", 0.0323),
]

* * *

test_context: in ethanol, 298.15 K
endpoint_label: solubility (mole fraction)

# chemical_string, reported_measurement
data = [
    ("Oc1cccc(/C=N\\NC(=S)NC2CCCCC2)c1", 0.0135),
]

* * *

test_context: in propylene glycol, 318.15 K

# chemical_string, solubility (mole fraction)
data = [
    ("Oc1cccc(/C=N\\NC(=S)NC2CCCCC2)c1", 0.0345),
]

* * *

test_context: in ethylene glycol, 318.15 K

# chemical_string, solubility (mole fraction)
rows = [
    ("Oc1cccc(/C=N\\NC(=S)NC2CCCCC2)c1", 0.0029),
]

* * *

test_context: in water, 338.15 K

# chemical_string, solubility (mole fraction)
records = [
    ("Oc1cccc(/C=N\\NC(=S)NC2CCCCC2)c1", "1.88e-06"),
]
